Measured pIC50 (EDG-6 (Homo sapiens, UniProt O95977))
pIC50 is a log-scale quantity: -log10 of the concentration expressed in molar.

CCNCC1=C(C)c2ccc(OCC(C)Cc3ccc(F)cc3)cc2CC1 (centres unmarked) [Example 27]; 7.59

Enter reported pIC50 observed with EDG-6 (Homo sapiens, UniProt O95977) for COc1cc(CC(C)C)ccc1COc1ccc2c(c1)CCC(CN1CCN(c3ccccn3)CC1)=C2C [Example 66-24]
Sequence (O95977 whole entry, species assumed): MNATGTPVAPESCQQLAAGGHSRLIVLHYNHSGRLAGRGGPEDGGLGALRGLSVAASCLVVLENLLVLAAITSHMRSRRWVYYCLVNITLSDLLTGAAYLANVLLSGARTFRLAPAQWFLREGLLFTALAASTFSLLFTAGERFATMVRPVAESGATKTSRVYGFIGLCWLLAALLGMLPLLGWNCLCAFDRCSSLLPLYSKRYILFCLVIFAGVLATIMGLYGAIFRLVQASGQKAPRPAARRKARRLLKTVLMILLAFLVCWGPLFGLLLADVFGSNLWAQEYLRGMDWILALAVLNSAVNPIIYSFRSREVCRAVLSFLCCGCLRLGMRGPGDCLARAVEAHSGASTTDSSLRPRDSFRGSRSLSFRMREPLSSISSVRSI
7.09

----------
# EC50 per entry
target: Human EDG-1 (Homo sapiens, UniProt P21453); assay: Agonistic activity against EDG by monitoring changes in intracellular calcium ion [Ca^2+]i concentration; conditions: Human EDG-1 overexpressing CHO cells; Fura2-AM; control 100 nM S1P; read-out: EC50 of agonistic activity against EDG-1 (increase ratio of intracellular calcium ion concentration)
Sequence (P21453 whole entry): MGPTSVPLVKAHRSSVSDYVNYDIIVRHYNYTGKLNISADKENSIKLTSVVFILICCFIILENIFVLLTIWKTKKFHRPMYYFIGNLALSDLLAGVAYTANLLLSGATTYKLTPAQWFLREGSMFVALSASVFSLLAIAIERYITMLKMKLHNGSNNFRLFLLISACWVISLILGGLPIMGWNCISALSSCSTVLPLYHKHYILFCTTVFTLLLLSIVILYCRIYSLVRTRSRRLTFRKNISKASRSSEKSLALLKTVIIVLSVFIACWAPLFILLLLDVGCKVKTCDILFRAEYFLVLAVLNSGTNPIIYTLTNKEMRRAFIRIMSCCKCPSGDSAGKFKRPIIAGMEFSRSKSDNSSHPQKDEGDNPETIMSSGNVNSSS
Write the number in µM without appending the unit.

c1ccc(CCCCOc2ccc3cc(CN4CCCCC4)ccc3c2)cc1; 7.8

Suppose we examine the compound `O=C(NS(=O)(=O)c1ccccc1)C1CN(Cc2ccc3cc(OCCCc4ccccc4)ccc3c2)C1` ; what EC50 value has been reported?
0.25
